Test system: MDA-N
method summary: NCI tumour cell line growth inhibition, 48 h
The source made the active and inactive calls. No stated cut-off is given here; in the data, active = GI50 up to about 1.1 µM and inactive = higher.
GI50 listing for selected molecules.

>  <molecule>
CC1CC(=O)N(N(C)C)C(C#N)(C#N)C1(C#N)C#N (stereo not given)

>  <experimental readout>
GI50

>  <result>
18.1 µM (inactive)

$$$$
>  <molecule>
O=C1/C(=C/c2ccc(Cl)cc2)CCC1CN1CCOCC1 (stereo not given)

>  <experimental readout>
GI50

>  <result>
6.46 µM (inactive)

$$$$
>  <molecule>
Cc1ccc(-n2cc(-c3ccc(Cl)cc3)c3c2N=CN2N=C(c4ccco4)NC32)cc1 (stereo not given)

>  <experimental readout>
GI50

>  <result>
19.5 µM (inactive)

$$$$
>  <molecule>
O/N=C1\C=Cc2nn(-c3ccccc3)nc2\C1=N/O

>  <experimental readout>
GI50

>  <result>
7.96 µM (inactive)

$$$$

Consider the additional molecule presented here.
Task: Query (molecule): "OCCN(CCO)CCn1cnc2c(NCc3ccccc3)ncnc21" ; field requested: GI50
Result: > 100 µM (inactive)

====

System: KM12
method summary: NCI tumour cell line growth inhibition, 48 h
Calls of active or inactive are those of the source. Cut-off read from the data, not from the text of the source: active = GI50 up to about 1.1 µM and inactive = higher.
Assign a class; possible classes are yes (1) for active, no (0) for inactive

Task: Identify the outcome logged in this assay for the molecule shown: C=C1CC(Cn2cc(Br)c(=O)[nH]c2=O)(c2ccc(-c3ccccc3)cc2)OC1=O (centres undefined)
Result: no (0)

Task: Identify the outcome logged in this assay for the molecule shown: CN(C)/N=C(/c1nc2ccc([N+](=O)[O-])cc2nc1O)C(O)c1ccco1 (centres undefined)
Result: no (0)

Task: Identify the outcome logged in this assay for the molecule shown: COC(=O)CC1C2(C)C3=C(C)C(c4ccoc4)CC3OC2C2OC(=O)C3(C)C=CC(=O)C1(C)C23 (centres undefined)
Result: no (0)

Task: Identify the outcome logged in this assay for the molecule shown: "C/C(=N\Nc1nc2ccccc2[nH]1)c1ncccn1"
Result: yes (1)

====

Test system: A549
method summary: NCI tumour cell line growth inhibition, 48 h
The source made the active and inactive calls. No stated cut-off is given here; in the data, active = GI50 up to about 1.1 µM and inactive = higher.
Assign a class; possible classes are active, inactive

>  <molecule>
CC(=O)N(C)C(C(=O)N1CC(C)CC1C(=O)N(C)C1C(=O)NC(CC(C)C)C(=O)N2CC(C)CC2C(=O)NC(CC(C)C)C(=O)N(C)C(C(C)C)C(=O)N2CCCC2C(=O)N(C)C(CC(C)C)C(=O)NCC(=O)OC1C)C(C)C (centres undefined)

>  <classification>
inactive

$$$$
>  <molecule>
CC(C)(O)c1cc2c(cc1C(C)(C)O)-c1ccccc1-2

>  <classification>
inactive

$$$$
>  <molecule>
Cc1ccc(/N=N/c2c(O)c(C(=O)O)cc3ccccc23)cc1C

>  <classification>
inactive

$$$$
>  <molecule>
CNC(=O)OCc1c2ccncc2c(C)c2c1[nH]c1ccc(OC)cc12

>  <classification>
active

$$$$
>  <molecule>
CC1(C(=O)NCCN(CCNC(=O)C2(C)CC3(C)CC(C)(C2)C(=O)NC3=O)CCNC(=O)C2(C)CC3(C)CC(C)(C2)C(=O)NC3=O)CC2(C)CC(C)(C1)C(=O)NC2=O (centres undefined)

>  <classification>
inactive

$$$$

Task: Identify the outcome logged in this assay for the molecule shown: "CC(=O)Oc1cc2c(c3ncccc13)OC(C)(C)C2"
Result: inactive

====

GI50 listing for selected molecules.
Tested on: KM12
method summary: NCI tumour cell line growth inhibition, 48 h
Calls of active or inactive are those of the source. No stated cut-off is given here; in the data, active = GI50 up to about 1.1 µM and inactive = higher. Square brackets hold non-standard residues; d marks the D form. Peptide text beside a SMILES is read from it. * marks the point of attachment. ξ: configuration not given here. NMeY = CN[C@@H](Cc1ccc(O)cc1)C(=O)O; Cbz = O=C(OCc1ccccc1)*; ξA = CC(N)C(=O)O

Examples with answers:
>  <molecule>
O=C(/C=C/c1ccccc1)OCC1=C[C@@H](O)[C@@H]2C=CO[C@@H](OC3OC(CO)C(O)C(O)C3O)[C@H]12 (some centres not stated)

>  <tested system>
KM12

>  <experimental readout>
GI50

>  <result>
> 100 µM (inactive)

$$$$
>  <molecule>
COc1ccc(C[C@@H](C(=O)N[C@@H](C)C(N)=O)N(C)C(=O)[C@@H]2CCCN2C(=O)[C@H](CC(C)C)NC(=O)C(C)NC(=O)OCc2ccccc2)cc1 (some centres not stated) (Cbz-[ξA]LP[NMeY](Me)A-NH2)

>  <tested system>
KM12

>  <experimental readout>
GI50

>  <result>
> 100 µM (inactive)

$$$$
>  <molecule>
CNC(=O)OCc1c2ccncc2c(C)c2c1[nH]c1ccc(OC)cc12

>  <tested system>
KM12

>  <experimental readout>
GI50

>  <result>
0.573 µM (active)

$$$$
>  <molecule>
COc1cc2c3c(c1OC)C(=O)C(=O)C1=C3N(CCC1)CC2

>  <tested system>
KM12

>  <experimental readout>
GI50

>  <result>
17 µM (inactive)

$$$$

Task: Query (molecule): "O=C1CC[C@@]2(O)[C@H]3Cc4ccc(-c5ccccc5)c5c4[C@@]2(CCN3CC2CC2)[C@H]1O5" ; field requested: GI50
Result: 18.9 µM (inactive)

Task: Query (molecule): "CCOC(=O)NC(Nc1ccc(Cl)cn1)(C(F)(F)F)C(F)(F)F" ; field requested: GI50
Result: > 100 µM (inactive)

Task: Query (molecule): "CC(=O)Oc1cc2c(c3ncccc13)OC(C)(C)C2" ; field requested: GI50
Result: 13.4 µM (inactive)

Task: Query (molecule): "COc1cc(/C=C/c2nc(N)nnc2C)cc(OC)c1OC" ; field requested: GI50
Result: 10.9 µM (inactive)

Task: Query (molecule): "COC(=O)c1ccc(Cl)cc1NC(=O)C1CCCCC1" ; field requested: GI50
Result: > 100 µM (inactive)

Task: Query (molecule): "CC(=O)[O-].[O-]c1c(Cl)cc(Cl)cc1/C=N/Nc1ccccn1.[Zn+2]" ; field requested: GI50
Result: 6.3 µM (inactive)

Task: Query (molecule): "COc1ccc(/C(Br)=C2\OC(=O)c3ccccc32)cc1" ; field requested: GI50
Result: > 10 µM (inactive)

Task: Query (molecule): "CN(C)CCCN1C(=S)N(CCCN(C)C)c2c3ccccc3nc3c([N+](=O)[O-])ccc1c23" ; field requested: GI50
Result: 3.3 µM (inactive)

====

Tested on: LOX IMVI
method summary: NCI tumour cell line growth inhibition, 48 h
Activity calls are given as the source filed them. No stated cut-off is given here; in the data, active = GI50 up to about 1.1 µM and inactive = higher.
Assign a class; possible classes are active, inactive

# example entries with known answers
>  <compound>
CC(=O)c1csc2c1C(=O)c1ccccc1C2=O

>  <tested system>
LOX IMVI

>  <classification>
inactive

$$$$
>  <compound>
CCC(C(=O)O)c1ccc(OC)cc1 (configuration not stated)

>  <tested system>
LOX IMVI

>  <classification>
inactive

$$$$
>  <compound>
COC(=O)C1=C(O)C(C(=O)OC)[C@]2(O)[C@H](C(=O)OC)[C@H]1C[C@@H](c1ccc(O)cc1)[C@H]2C(=O)OC (some centres not stated)

>  <tested system>
LOX IMVI

>  <classification>
inactive

$$$$
>  <compound>
CC1CC(=O)N(N(C)C)C(C#N)(C#N)C1(C#N)C#N (configuration not stated)

>  <tested system>
LOX IMVI

>  <classification>
inactive

$$$$
>  <compound>
CC(=O)OC1C[C@@H](C)C2(C[C@H](O)c3ccoc3)C(=O)OC[C@]13C2CCC(O)C31CO1 (some centres not stated)

>  <tested system>
LOX IMVI

>  <classification>
inactive

$$$$

From here, focus on the item given below.
Task: Identify the outcome logged in this assay for the compound shown: Cc1cccc2oc3c(c(=O)c12)CC(O)C(C)(C)O3 (configuration not stated)
Result: inactive

====

System: NCI-H23
method summary: NCI tumour cell line growth inhibition, 48 h
Calls of active or inactive are those of the source. No stated cut-off is given here; in the data, active = GI50 up to about 1.1 µM and inactive = higher.
Assign a class; possible classes are T = active, F = inactive

>  <compound>
O=C(N/N=C\c1ccc([N+](=O)[O-])cc1)Nc1ccc2ccccc2c1

>  <classification>
F

$$$$
>  <compound>
CCCCC(=O)OCC(=O)[C@]1(O)Cc2c(O)c3c(c(O)c2[C@@H](OC2CC(NC(=O)C(F)(F)F)C(O)C(C)O2)C1)C(=O)c1c(OC)cccc1C3=O (some centres undefined)

>  <classification>
T

$$$$
>  <compound>
Cc1ccc(-n2cc(-c3ccc(Cl)cc3)c3c2N=CN2N=C(c4ccco4)NC32)cc1 (centres undefined)

>  <classification>
F

$$$$

Task: Identify the outcome logged in this assay for the compound shown: "CN(C)Cc1cc(C(=O)/C=C/c2c(Cl)cccc2Cl)cc(CN(C)C)c1O"
Result: F

====

Test system: RXF 393
method summary: NCI tumour cell line growth inhibition, 48 h
Active and inactive are the calls of the source. Rule as the data show it: active = GI50 up to about 1.1 µM and inactive = higher.
Assign a class; possible classes are true (1) (active), false (0) (inactive)

# example entries with known answers
>  <compound>
CN(CCc1ccccn1)C(=S)N/N=C/c1ccccn1

>  <classification>
true (1)

$$$$
>  <compound>
O=C1/C(=C/c2ccc(O)cc2)CCC1CNc1ccccc1 (stereo not drawn)

>  <classification>
false (0)

$$$$
>  <compound>
CC(=O)Oc1cc2c(c3ncccc13)OC(C)(C)C2

>  <classification>
false (0)

$$$$

From here, focus on the item given below.
Task: Identify the outcome logged in this assay for the compound shown: Cc1ccc(-n2cc(-c3ccc(Cl)cc3)c3c2N=CN2N=C(c4ccco4)NC32)cc1 (stereo not drawn)
Result: false (0)
